These data points were gathered from paper PMC5706701.

- targetOrTestSystem: Human IP6K1 (Homo sapiens, UniProt Q92551)
- Construct: GST (N, cleaved yes); made in house; host or cells: C43 E. coli, pGEX-6P-2
- Sequence (Q92551 whole entry): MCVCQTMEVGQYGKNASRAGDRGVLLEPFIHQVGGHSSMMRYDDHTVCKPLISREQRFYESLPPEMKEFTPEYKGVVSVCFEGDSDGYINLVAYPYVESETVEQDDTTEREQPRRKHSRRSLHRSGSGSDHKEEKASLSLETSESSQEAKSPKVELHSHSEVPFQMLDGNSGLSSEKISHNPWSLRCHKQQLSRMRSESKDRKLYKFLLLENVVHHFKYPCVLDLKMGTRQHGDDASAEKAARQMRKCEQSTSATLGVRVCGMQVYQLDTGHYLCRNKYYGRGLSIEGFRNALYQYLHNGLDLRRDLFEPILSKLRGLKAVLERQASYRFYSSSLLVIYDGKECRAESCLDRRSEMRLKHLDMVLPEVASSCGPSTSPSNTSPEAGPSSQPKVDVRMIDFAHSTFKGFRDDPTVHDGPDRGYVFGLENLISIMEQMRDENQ
- assayProtocol: IP6K1 high-throughput screen of the Sigma LOPAC (ADP-Glo Max, single point);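 also: final compound concentration 10µM in 5% DMSO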
- Type: biochemical
- experimentalSetup: LOPAC single-point screen; Z-score from plate average and StDev
Where a name gives a salt, the structure may show the parent alone. Where a SMILES comes first, the peptide text is derived from it. The star is where a group is joined. Cbz = O=C(OCc1ccccc1)*
outcomeMeasure: Z-score

INSERT INTO measurements (molecule, reportedresult) VALUES
  ('Nc1ncnc2c1ncn2C1CCCO1 (centres unmarked)', 1.356),
  ('CC(=O)[C@H]1CC[C@H]2[C@@H]3CC=C4C[C@@H](OS(=O)(=O)[O-])CC[C@]4(C)[C@H]3CC[C@]12C.[Na+] [Pregnenolone sulfate sodium]', 1.352),
  ('N#CC(C#N)=Cc1ccc([N+](=O)[O-])c(O)c1', 1.749),
  ('CN1[C@@H]2CC[C@H]1C[C@@H](OC(=O)[C@H](CO)c1ccccc1)C2', 1.61),
  ('COC(=O)C1=C(C)NC(C)=C(C(=O)OCCN(C)Cc2ccccc2)C1c1cccc([N+](=O)[O-])c1 (centres unmarked) [Nicardipine hydrochloride]', 2.011),
  ('COC(=O)C(N)Cc1ccc(Cl)cc1.Cl (racemic)', 1.605),
  ('CNc1ccc2oc(C[C@H]3O[C@@]4(CC[C@H]3C)O[C@H]([C@H](C)C(=O)c3ccc[nH]3)[C@H](C)C[C@H]4C)nc2c1C(=O)O', 1.461),
  ('COc1ccc(/C=C/C(=O)Nc2ccccc2C(=O)O)cc1OC', 2.511),
  ('COc1ccc([C@@H]2Sc3ccccc3N(CCN(C)C)C(=O)[C@@H]2OC(C)=O)cc1 [Diltiazem hydrochloride]', 2.096),
  ('NC(N)=Nc1ccc2[nH]c3c(c2c1)C[C@@]1(O)[C@H]2Cc4ccc(O)c5c4[C@@]1(CCN2CC1CC1)[C@H]3O5.O=C(O)C(F)(F)F.O=C(O)C(F)(F)F', 2.166),
  ('NC(=O)c1ccc(OCC(O)CN2CC=C(c3ccc(F)cc3)CC2)cc1 (centres unmarked)', 1.412),
  ('C[N+]1(C)CCC(OC(=O)C(c2ccccc2)c2ccccc2)CC1.[I-] [4-DAMP methiodide]', 1.6103),
  ('CCCCCCCCCCCCCCCC(=O)NCC(COP(=O)([O-])OCC[N+](C)(C)C)OCC (racemic)', 1.616),
  ('c1ccc(C2CN3CCSC3=N2)cc1 (centres unmarked) [Tetramisole hydrochloride]', 1.608),
  ('CSc1ccc(C(=O)c2[nH]c(=O)[nH]c2C)cc1', 1.919),
  ('CC1Cc2cc3c(cc2C(c2ccc(N)cc2)=NN1)OCO3 (centres unmarked)', 1.773),
  ('CNC(=O)[C@H]1O[C@@H](n2cnc3c(N)ncnc32)[C@H](O)[C@@H]1O', 1.544),
  ('N[C@H](C(=O)O)c1cc(O)cc(O)c1 [(S)-3,5-Dihydroxyphenylglycine]', 1.632),
  ('Cl.NOCC(=O)O.NOCC(=O)O', 1.491),
  ('Cl.Nc1ccn([C@@H]2O[C@H](CO)[C@@H](O)[C@@H]2O)c(=O)n1', 1.403),
  ('CC(C)[C@@]1(NC(=O)[C@@H]2C[C@@H]3c4cccc5[nH]cc(c45)C[C@H]3N(C)C2)O[C@@]2(O)[C@@H]3CCCN3C(=O)[C@H](Cc3ccccc3)N2C1=O.CS(=O)(=O)O [Dihydroergocristine methanesulfonate]', 2.037),
  ('C[C@@H]1O[C@@H]1P(=O)(O)O [Phosphomycin disodium]', 1.408),
  ('CC(C)[C@H](NC(=O)OCc1ccccc1)C(=O)N[C@H](C=O)Cc1ccccc1 [MDL 28170] (Cbz-Val-Phe-aldehyde)', 1.923),
  ('CN(C)c1nc(N(C)C)nc(N(C)C)n1', 1.958),
  ('CNCC[C@@H](Oc1ccc(C(F)(F)F)cc1)c1ccccc1.Cl [R-(-)-Fluoxetine hydrochloride]', 1.778),
  ('CN1CCc2cc3c(cc2[C@H]1[C@@H]1OC(=O)c2c1ccc1c2OCO1)OCO3 [(+)-Bicuculline]', 1.4865),
  ('NC(C(=O)O)C(O)C(=O)O (racemic) [DL-threo-beta-hydroxyaspartic acid]', 1.984),
  ('CC1=NN=C(c2ccc(N)cc2)c2cc3c(cc2C1)OCO3.Cl [GYKI 52466 hydrochloride]', 1.376),
  ('Cl.NO [Hydroxylamine hydrochloride]', 1.35),
  ('O=[N+]([O-])c1cccc2c(Br)n[nH]c12', 1.862),
  ('COc1ccc(CCN(C)CCCC(C#N)(c2ccc(OC)c(OC)c2)C(C)C)cc1OC.Cl (racemic) [(±)-Verapamil hydrochloride]', 1.417),
  ('Cc1cccc(C(=O)NCN2CCN(c3ccccc3C#N)CC2)c1.O=C(O)/C=C\C(=O)O [PD 168,077 maleate]', 1.598);
